Reference source for all entries: patent US20250136606A1

Target: TRPML2 (Homo sapiens)
Construct: expressed in transfected cells
Sequence (Q8IZK6 whole entry): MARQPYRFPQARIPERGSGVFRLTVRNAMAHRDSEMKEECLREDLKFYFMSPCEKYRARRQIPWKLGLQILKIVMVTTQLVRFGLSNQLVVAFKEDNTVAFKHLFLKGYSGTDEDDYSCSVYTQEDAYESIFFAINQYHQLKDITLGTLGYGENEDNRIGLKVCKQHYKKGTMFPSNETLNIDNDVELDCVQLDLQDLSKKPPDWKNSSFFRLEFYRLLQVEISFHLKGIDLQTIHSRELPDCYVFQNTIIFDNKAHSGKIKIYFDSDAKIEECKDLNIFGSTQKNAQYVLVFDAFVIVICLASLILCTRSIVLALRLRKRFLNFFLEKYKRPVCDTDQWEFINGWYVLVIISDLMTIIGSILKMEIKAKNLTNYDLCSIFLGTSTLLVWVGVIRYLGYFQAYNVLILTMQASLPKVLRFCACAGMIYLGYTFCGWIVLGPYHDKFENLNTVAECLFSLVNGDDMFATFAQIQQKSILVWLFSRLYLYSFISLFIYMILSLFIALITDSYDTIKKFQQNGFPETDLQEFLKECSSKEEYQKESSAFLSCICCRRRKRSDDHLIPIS
Assay: Fluorescent TRPML2 assay (performed as for TRPML1, substituting the TRPML2 subtype)
Assay type: cell-based
Details: fluorescent calcium assay
pEC50: −log10 of the molar value.
RECORDED ENDPOINT: pEC50

Example entries and their recorded answers appear below.
COMPOUND: CC(C)(C)OC(=O)N1CCN(c2ncnc3c2c(C2CC2)cn3-c2cc(F)cc(F)c2)C[C@H]1CF (single isomer, unassigned)
pEC50: 5.70 to 6.30
--
COMPOUND: Cc1cncc(-n2cc(C3CC3)c3c(N4CCN(C(=O)OC(C)(C)C)[C@H](C)C4)ncnc32)c1 (single isomer, unassigned)
pEC50: < 5.70

What pEC50 value was documented for this compound, "C[C@H]1CN(C(=O)OC(C)(C)C)CCN1c1ncnc2c1c(N1CCCC1)cn2-c1cccc(OC(F)(F)F)c1" ?
> 7.00

Now give it for Cc1nccnc1-c1cn(-c2cccc(Cl)c2)c2ncnc(N3CCN(C(=O)OC(C)(C)C)CC3C)c12 (stereo not shown) too.
5.70 to 6.30

Now give it for "CCN(CC)c1cn(-c2cc(C#N)ccn2)c2ncnc(N3CCN(C(=O)OC(C)(C)C)C[C@@H]3C)c12" too.
6.30 to 7.00

Now give it for "CCOC(=O)N1C[C@H](C)N(c2ncnc3c2c(-c2ccccc2F)cn3-c2cc(C)ccn2)C[C@H]1C" too.
5.70 to 6.30

Now give it for "Cc1cc(-n2cc(-c3ccccc3F)c3c(N4CCN(C(=O)OC(C)(C)C)C[C@@H]4C)ncnc32)cc(C#N)n1" too.
6.30 to 7.00

----------
Biological target: TRPML3 (Homo sapiens, UniProt Q8TDD5)
Construct: expressed in transfected cells
Sequence (Q8TDD5 1-553): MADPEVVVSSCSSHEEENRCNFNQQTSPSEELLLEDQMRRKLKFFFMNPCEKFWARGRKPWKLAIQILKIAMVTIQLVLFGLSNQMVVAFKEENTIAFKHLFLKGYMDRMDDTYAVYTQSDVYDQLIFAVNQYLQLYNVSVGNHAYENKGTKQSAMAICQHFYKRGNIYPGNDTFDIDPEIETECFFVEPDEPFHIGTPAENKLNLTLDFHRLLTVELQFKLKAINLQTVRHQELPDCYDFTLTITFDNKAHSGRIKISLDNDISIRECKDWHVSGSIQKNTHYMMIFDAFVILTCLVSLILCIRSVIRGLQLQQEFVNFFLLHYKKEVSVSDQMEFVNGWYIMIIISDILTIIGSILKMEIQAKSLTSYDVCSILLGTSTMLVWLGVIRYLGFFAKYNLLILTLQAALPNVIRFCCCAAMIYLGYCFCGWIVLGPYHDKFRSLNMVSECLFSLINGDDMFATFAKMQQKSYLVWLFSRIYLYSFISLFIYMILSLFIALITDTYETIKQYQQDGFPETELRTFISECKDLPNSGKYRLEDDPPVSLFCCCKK
Test: Fluorescent TRPML3 assay (performed as for TRPML1, substituting the TRPML3 subtype)
Assay type: cell-based
RECORDED ENDPOINT: EC50

STRUCTURE STRING: [2H]C([2H])([2H])[C@@H]1CN(c2ncnc3c2c(C(F)F)cn3-c2cc(C#N)ccn2)[C@@H](C)CN1C(=O)OC(C)(C)C
EC50: < 0.1 µM

What EC50 value was documented for this compound, "C[C@@H]1CN(c2ncnc3c2c(N2CCC2)cn3-c2cc(F)cc(F)c2)[C@@H](C)CN1C(=O)OC(C)(C)C" ?
< 0.1 µM

Now give it for "C[C@@H]1CN(c2ncnc3c2c(C2CCC2)cn3-c2cccc(C(F)(F)F)c2)[C@@H](C)CN1C(=O)OC(C)(C)C" too.
0.1 to 0.5 µM

Now give it for "Cc1cn(-c2cccc(Cl)c2)c2ncnc(N3CCN(C(=O)OC(C)(C)C)C[C@@H]3C)c12" too.
< 0.1 µM

Now give it for "[2H]C([2H])([2H])[C@@H]1CN(c2ncnc3c2c(-c2ccccc2F)cn3-c2cc(C#N)ccn2)[C@@H](C)CN1C(=O)OC(C)(C)C" too.
< 0.1 µM

Now give it for "C[C@@H]1CN(c2ncnc3c2c(C(F)(F)F)cn3[C@H]2CCCOC2)[C@@H](C)CN1C(=O)OC(C)(C)C" too.
> 2 µM

Now give it for "CC(C)(C)OC(=O)N1CCN(c2ncnc3c2c(C(F)(F)F)cn3-c2cc(C#N)ccn2)C2(CC2)C1" too.
< 0.1 µM

Now give it for "CCCN(C)c1cn(-c2cc(C#N)ccn2)c2ncnc(N3C[C@@H](C)N(C(=O)OC(C)(C)C)C[C@@H]3C)c12" too.
< 0.1 µM

Now give it for "C[C@@H]1CN(c2ncnc3c2c(C(F)(F)F)cn3-c2cc(C#N)ccn2)[C@@H](C)CN1C(=O)OC1CC1" too.
< 0.1 µM

Now give it for "Cc1cn(-c2cc(F)ccn2)c2ncnc(N3CCN(C(=O)OC(C)(C)C)[C@H](C)C3)c12" too.
0.1 to 0.5 µM

----------
Molecular target: TRPML2 (Homo sapiens)
Construct: expressed in transfected cells
Assay: Fluorescent TRPML2 assay (performed as for TRPML1, substituting the TRPML2 subtype)
Format: cell-based
Details: fluorescent calcium assay
Experimental: HEK-293 Trex cells were stably transfected with a construct consisting of the human coding sequence for TRPML1 cloned into the […] plasmid pCDNA5 T/O. Mutations were introduced into the TRPML1 sequence to facilitate expression on the cell surface (Silvia Vergarajauregui, Rosa Puertollano, Traffic. 2006 March; 7(3): 337-353). […] The Trypsin-EDTA is diluted with growth media, and cells are counted. […] EC50 values were calculated using a non-linear regression of Prism. […]
pEC50: −log10 of the molar value.
RECORDED ENDPOINT: pEC50

Example entries and their recorded answers appear below.
COMPOUND: CC(C)(CF)OC(=O)N1CCN(c2ncnc3c2c(-c2ccccc2F)cn3-c2cncnc2)CC1
STUDY SYSTEM: TRPML2 (Homo sapiens)
RESULT: < 5.70

COMPOUND: C[C@H]1CN(C(=O)OC(C)(C)C(F)(F)F)CCN1c1ncnc2c1c(-c1cnn(C)c1)cn2-c1cccc(C#N)c1
STUDY SYSTEM: TRPML2 (Homo sapiens)
RESULT: < 5.70

COMPOUND: CCc1cn(-c2cc(C#N)ccn2)c2ncnc(N3C[C@@H](C)N(C(=O)OC(C)(C)C)C[C@@H]3C)c12
STUDY SYSTEM: TRPML2 (Homo sapiens)
RESULT: > 7.00

What pEC50 value was documented for this compound, "C[C@@H]1CN(c2ncnc3c2c(C2CC2)cn3-c2cc(F)c(F)c(Cl)c2)CCN1C(=O)OC(C)(C)C" ?
6.30 to 7.00

Now give it for "COc1cccc(-n2cc(C3CC3)c3c(N4CCN(C(=O)OC(C)(C)C(F)(F)F)C[C@@H]4C)ncnc32)c1" too.
5.70 to 6.30

Now give it for "C[C@@H]1CN(c2ncnc3c2c(N2CCCC2)cn3-c2cc(F)c(F)c(F)c2)CCN1C(=O)OC(C)(C)C" too.
6.30 to 7.00

Now give it for "C[C@H]1CN(C(=O)OC(C)(C)C)CCN1c1ncnc2c1c(N1CCCC1)cn2[C@@H]1C[C@@H]2CC[C@H]1C2" too.
5.70 to 6.30

Now give it for "C[C@H]1CN(C(=O)OC(C)(C)C)CCN1c1ncnc2c1c(-c1cncnc1)cn2-c1cccc(C#N)c1" too.
< 5.70

Now give it for "C[C@@H]1CN(c2ncnc3c2c(C2CC2)cn3-c2ccc(F)c(F)c2)CCN1C(=O)OC(C)(C)C" too.
> 7.00

Now give it for "Cc1nccnc1-c1cn(-c2cc(F)cc(F)c2)c2ncnc(N3CCN(C(=O)OC(C)C)[C@H](C)C3)c12" too.
< 5.70

Now give it for "C[C@H]1CN(C(=O)OC(C)(C)C)CCN1c1ncnc2c1c(C1CC1)cn2-c1cccc(OC(F)F)c1" too.
6.30 to 7.00

Now give it for "Cc1nccnc1-c1cn(-c2cc(F)cc(F)c2)c2ncnc(N3CCN(C(=O)OC(C)(C)C)[C@H](C)C3)c12" too.
6.30 to 7.00

Now give it for "C[C@H]1CN(C(=O)OC(C)(C)CF)CCN1c1ncnc2c1c(-c1ccccc1)cn2-c1cnn(C)c1" too.
5.70 to 6.30

Now give it for "C[C@@H]1CN(C(=O)OC(C)(C)C)CCN1c1ncnc2c1c(C1CC1)cn2-c1cccc(OC(F)F)c1" too.
6.30 to 7.00

Now give it for "CCN(CC)c1cn(-c2cc(C#N)ccn2)c2ncnc(N3CCN(C(=O)OC(C)(C)C)[C@H](C)C3)c12" too.
6.30 to 7.00

Now give it for "C[C@H]1CN(C(=O)OC(C)(C)C)CCN1c1ncnc2c1c(N1CCCC1)cn2-c1ncc(C#N)s1" too.
5.70 to 6.30

Now give it for "C[C@H]1CN(C(=O)OC(C)(C)C)CCN1c1ncnc2c1c(N1CCC(F)(F)C1)cn2-c1cccc(Cl)c1" too.
> 7.00

Now give it for C[C@H]1CN(C(=O)OC(C)(C)C)CCN1c1ncnc2c1c(C1CC1(F)F)cn2-c1cccc(C#N)c1 (stereo partly shown) too.
6.30 to 7.00

Now give it for "C[C@@H]1CN(c2ncnc3c2c(-c2ccccn2)cn3-c2cc(C#N)ccn2)CCN1C(=O)OC(C)(C)C" too.
6.30 to 7.00
